Data provenance is patent US20250186603A1.

- Tested on: M21 (melanoma) cells
- Test Description: ADC cell killing assay (CellTiter Glo Luminescent Cell Viability assay) on M21
- Format: cell-based, human
- Condition Label: Homo sapiens, M21, 144 h
pIC50: −log10 of the molar value.
Recorded Metric: pIC50

INSERT INTO results (structure_smiles_string, system_name, recorded_metric, experimental_result) VALUES
  ('CC[C@@]1(O)C(=O)OCc2c1cc1n(c2=O)Cc2c-1nc1cc(F)c(C)c3c1c2[C@@H](N)CC3', 'M21 (melanoma) cells', 'pIC50', 8.96);

###

- Tested on: CHP-134 (neuroblastoma) cells
- Test Description: ADC cell killing assay (CellTiter Glo Luminescent Cell Viability assay) on CHP-134
- Format: cell-based, human
- Condition Label: Homo sapiens, CHP-134, 144 h
pIC50: −log10 of the molar value.
Recorded Metric: pIC50

INSERT INTO assay_data (structure_smiles_string, experimental_result) VALUES
  ('CC[C@@]1(O)C(=O)OCc2c1cc1n(c2=O)Cc2c-1nc1cc(F)c(C)c3c1c2[C@@H](N)CC3', 9.70);
